biological target: SARS-CoV-2 M^pro (Severe acute respiratory syndrome coronavirus 2, UniProt P0DTD1); assay: biochemical; settings: read-out: inhibition [%] SARS-CoV-2 Mpro, [I] = 100 nM
Binary classification by inhibition at 0.1 µM, with 70% as an inclusive lower bound for rule met; all other cases are rule not met.

| Chemical structure | Label value |
| --- | --- |
| O=C(Nc1ccc(C(F)(F)F)cc1)c1ccccc1[Se][Se]c1ccccc1C(=O)Nc1ccc(C(F)(F)F)cc1 | rule not met |
| O=c1c2ccccc2[se]n1-c1cc(Cl)ccc1Cl | rule met |
| Cc1cc(NC(=O)c2ccccc2[Se][Se]c2ccccc2C(=O)Nc2ccc(Cl)c(C)c2)ccc1Cl | rule not met |

Is the recorded value of inhibition at 0.1 µM equal to or greater than 70% for this compound? COc1cccc(NC(=O)c2ccccc2[Se][Se]c2ccccc2C(=O)Nc2cccc(OC)c2)c1
rule not met

Does the compound Cc1cc(-n2[se]c3ccccc3c2=O)ccc1Cl have recorded inhibition at 0.1 µM that is 70% or more?
rule met

Reported inhibition at 0.1 µM at or above 70%? O=C(Nc1ccccc1F)c1ccccc1[Se][Se]c1ccccc1C(=O)Nc1ccccc1F
rule not met

Is inhibition at 0.1 µM for Cc1ccc(Cl)cc1NC(=O)c1ccccc1[Se][Se]c1ccccc1C(=O)Nc1cc(Cl)ccc1C at or above 70%?
rule not met

Tell me whether inhibition at 0.1 µM is at least 70% here: Cc1ccccc1-n1[se]c2ccccc2c1=O
rule not met

Exam item: decide whether the reported inhibition at 0.1 µM for O=C(Nc1cccc(F)c1)c1ccccc1[Se][Se]c1ccccc1C(=O)Nc1cccc(F)c1 is at least 70%.
rule not met

# bool: inhibition at 0.1 µM of COc1cccc(-n2[se]c3ccccc3c2=O)c1 >= 70%
rule not met

Reported inhibition at 0.1 µM reaches at least 70% for O=c1c2ccccc2[se]n1-c1ccccc1Br ?
rule met

---

biological target: SARS-CoV-2 PL^pro (Severe acute respiratory syndrome coronavirus 2, UniProt P0DTD1); assay: biochemical; conditions: [E] = 100 nM, [I] = 1 µM, [S] = 10 µM
Answer each item with its documented inhibition [%] SARS-CoV-2 PLpro.
Numbers only, in %.

Worked set:
| Chemical structure | Measured value |
| --- | --- |
| O=C(Nc1ccc(Cl)cc1F)c1ccccc1[Se][Se]c1ccccc1C(=O)Nc1ccc(Cl)cc1F | 75.1 |
| O=c1c2ccccc2[se]n1-c1ccc(F)cc1F | 58.1 |

For the 2 compounds below, give their inhibition [%] SARS-CoV-2 PLpro values.
1. Cc1cc(NC(=O)c2ccccc2[Se][Se]c2ccccc2C(=O)Nc2ccc(Cl)c(C)c2)ccc1Cl
2. Cc1ccc(Cl)cc1NC(=O)c1ccccc1[Se][Se]c1ccccc1C(=O)Nc1cc(Cl)ccc1C

[72.1, 72.4]

---

target: SARS-CoV-2 M^pro (Severe acute respiratory syndrome coronavirus 2, UniProt P0DTD1); assay: biochemical; conditions: read-out: inhibition [%] SARS-CoV-2 Mpro, [I] = 1 µM
Value kind: inhibition at 1 µM
Note: a bare number is incomplete; add the unit.

| Molecule | inhibition at 1 µM |
| --- | --- |
| O=C(Nc1ccccc1F)c1ccccc1[Se][Se]c1ccccc1C(=O)Nc1ccccc1F | 100% |
| COc1ccc(NC(=O)c2ccccc2[Se][Se]c2ccccc2C(=O)Nc2ccc(OC)cc2OC)c(OC)c1 | 100% |
| O=c1c2ccccc2[se]n1-c1ccccc1 [Ebselen, 2-phenylbenzisoselenazol-3(2H)-one, reference compound] | 100% |

Please report inhibition at 1 µM for every entry that follows.
1. O=C(Nc1cccc(F)c1)c1ccccc1[Se][Se]c1ccccc1C(=O)Nc1cccc(F)c1
2. O=C(Nc1ccc(Cl)cc1F)c1ccccc1[Se][Se]c1ccccc1C(=O)Nc1ccc(Cl)cc1F
3. Cc1ccc(Cl)cc1NC(=O)c1ccccc1[Se][Se]c1ccccc1C(=O)Nc1cc(Cl)ccc1C
4. COc1cccc(NC(=O)c2ccccc2[Se][Se]c2ccccc2C(=O)Nc2cccc(OC)c2)c1
5. O=C(Nc1ccccc1C(F)(F)F)c1ccccc1[Se][Se]c1ccccc1C(=O)Nc1ccccc1C(F)(F)F
6. Cc1cc(NC(=O)c2ccccc2[Se][Se]c2ccccc2C(=O)Nc2ccc(Cl)c(C)c2)ccc1Cl

1. 100%
2. 49.6%
3. 100%
4. 100%
5. 78.1%
6. 92%

---

biological target: SARS-CoV-2 PL^pro (Severe acute respiratory syndrome coronavirus 2, UniProt P0DTD1); assay: biochemical; settings: [E] = 100 nM, [I] = 1 µM, [S] = 10 µM
Give inhibition [%] SARS-CoV-2 PLpro for every item shown.
One number for each entry, in %.

| Molecule | inhibition [%] SARS-CoV-2 PLpro [%] |
| --- | --- |
| Cc1ccc(Cl)c(-n2[se]c3ccccc3c2=O)c1 [Compound 19] | 57.6 |

Below is a list of molecules. For each, state its recorded inhibition [%] SARS-CoV-2 PLpro.
1. O=C(Nc1c(F)cccc1Cl)c1ccccc1[Se][Se]c1ccccc1C(=O)Nc1c(F)cccc1Cl [Compound 34]
2. O=C(Nc1ccccc1C(F)(F)F)c1ccccc1[Se][Se]c1ccccc1C(=O)Nc1ccccc1C(F)(F)F [Compound 26]

1: 60.2; 2: 61.3

---

Answer each item with its documented inhibition at 0.1 µM.
target: SARS-CoV-2 M^pro (Severe acute respiratory syndrome coronavirus 2); experiment: biochemical; settings: read-out: inhibition [%] SARS-CoV-2 Mpro, [I] = 100 nM
One number for each entry, in %.

Go through the list and state inhibition at 0.1 µM for each entry.
1. COc1ccc(-n2[se]c3ccccc3c2=O)cc1OC
2. O=c1c2ccccc2[se]n1-c1ccc([N+](=O)[O-])cc1

1. 60.6
2. 82.9

Batch of 5 compounds: report inhibition at 0.1 µM for each.
1. O=c1c2ccccc2[se]n1-c1ccc(Cl)cc1F
2. O=c1c2ccccc2[se]n1-c1ncccc1O
3. O=C(Nc1ccccc1C(F)(F)F)c1ccccc1[Se][Se]c1ccccc1C(=O)Nc1ccccc1C(F)(F)F
4. O=c1c2ccccc2[se]n1-c1ccccc1[N+](=O)[O-]
5. O=c1c2ccccc2[se]n1-c1ccccc1C(F)(F)F

77.1
55.9
34.5
38.5
62.8

Respectfully, I request inhibition at 0.1 µM for each entry included below.
1. CC(=O)Nc1ccc(-n2[se]c3ccccc3c2=O)cc1
2. O=c1c2ccccc2[se]n1-c1ccccc1Cl
3. COc1ccc(NC(=O)c2ccccc2[Se][Se]c2ccccc2C(=O)Nc2ccc(OC)cc2OC)c(OC)c1

1: 62; 2: 66.5; 3: 50
